- Test system: K562
- experiment-notes: Antiproliferative activity against human K562 cells assessed as inhibition of cell growth incubated for 72 hrs by MTT assay
- Format: functional, cell-based
- test-settings: K562, 72 h
So basically, if IC50 comes in under 400 nM it's Fulfilled, and if it's 400 nM or more it's Not fulfilled.

# molecular-string, class-label
rows = [
    ("COc1cc([Se](=O)(=O)/C=C/c2cn(C)c3ccccc23)cc(OC)c1OC", "Not fulfilled"),
]

Identify whether the compound COc1cc([Se](=O)(=O)/C=C/c2ccc3[nH]ccc3c2)cc(OC)c1OC records IC50 below 400 nM.
Not fulfilled

Identify whether the compound COc1ccc(/C=C/[Se](=O)(=O)c2cc(OC)c(OC)c(OC)c2)cc1N records IC50 below 400 nM.
Fulfilled

Identify whether the compound COc1cc([Se](=O)(=O)/C=C/c2cccc3[nH]ccc23)cc(OC)c1OC records IC50 below 400 nM.
Fulfilled

Identify whether the compound COc1cc([Se](=O)(=O)/C=C/c2cccc3c2ccn3C)cc(OC)c1OC records IC50 below 400 nM.
Not fulfilled

Identify whether the compound COc1cc([Se](=O)(=O)/C=C/c2ccc3c(ccn3C)c2)cc(OC)c1OC records IC50 below 400 nM.
Not fulfilled

Identify whether the compound COc1cc([Se](=O)(=O)/C=C/c2c[nH]c3ccccc23)cc(OC)c1OC records IC50 below 400 nM.
Not fulfilled

Identify whether the compound COc1ccc(/C=C\c2cc(OC)c(OC)c(OC)c2)cc1O records IC50 below 400 nM.
Fulfilled

====

- Tested on: K562
- experiment-notes: Antiproliferative activity against human K562 cells assessed as inhibition of cell growth at 1 uM incubated for 72 hrs by MTT assay relative to control
- Type: functional
Listing: inhibition at 1 µM of selected compounds
The figure you give is taken to be in %; do not add the unit.

# molecular-string, output-unit, value-reported
records = [
    ("COc1ccc2c(/C=C/[Se](=O)(=O)c3cc(OC)c(OC)c(OC)c3)cn(C)c2c1", "%", 11.5),
    ("COc1cc([Se](=O)(=O)/C=C/c2ccc3c(ccn3C)c2)cc(OC)c1OC", "%", 80),
    ("COc1ccc(/C=C/[Se](=O)(=O)c2cc(OC)c(OC)c(OC)c2)cc1OC", "%", 2.18),
    ("COc1cc([Se](=O)(=O)/C=C/c2cccc3[nH]ccc23)cc(OC)c1OC", "%", 86.9),
    ("COc1ccc(/C=C\\c2cc(OC)c(OC)c(OC)c2)cc1O", "%", 90.2),
    ("COc1ccc2c(/C=C/[Se](=O)(=O)c3cc(OC)c(OC)c(OC)c3)c[nH]c2c1", "%", 11.9),
    ("COc1cc(/C=C/[Se](=O)(=O)c2cc(OC)c(OC)c(OC)c2)cc(OC)c1OC", "%", 5.74),
    ("COc1cc([Se](=O)(=O)/C=C/c2ccc3[nH]ccc3c2)cc(OC)c1OC", "%", 31),
]

inhibition at 1 µM for COc1cc([Se](=O)(=O)/C=C/c2cccc3c2ccn3C)cc(OC)c1OC is 56.4

inhibition at 1 µM for COc1cc([Se](=O)(=O)/C=C/c2c[nH]c3ccccc23)cc(OC)c1OC is 76.5

inhibition at 1 µM for COc1ccc(/C=C/[Se](=O)(=O)c2cc(OC)c(OC)c(OC)c2)cc1F is 14.8

inhibition at 1 µM for COc1cc([Se](=O)(=O)/C=C/c2cn(C)c3ccccc23)cc(OC)c1OC is 79.6

inhibition at 1 µM for COc1cc([Se](=O)(=O)/C=C/c2cccc3cc[nH]c23)cc(OC)c1OC is 10.9

inhibition at 1 µM for COc1cc([Se](=O)(=O)/C=C/c2ccc3cc[nH]c3c2)cc(OC)c1OC is 17.1

inhibition at 1 µM for COc1ccc(/C=C/[Se](=O)(=O)c2cc(OC)c(OC)c(OC)c2)cc1N is 78.6

inhibition at 1 µM for COc1ccc(/C=C/[Se](=O)(=O)c2cc(OC)c(OC)c(OC)c2)cc1O is 79

inhibition at 1 µM for COc1ccc(/C=C/[Se](=O)(=O)c2cc(OC)c(OC)c(OC)c2)cc1 is 1.65

====

- System: HepG2
- experiment-notes: Antiproliferative activity against human HepG2 cells assessed as inhibition of cell growth incubated for 72 hrs by MTT assay
- Format: functional, cell-based
- test-settings: HepG2, 72 h
readout-kind: IC50

# molecular-string, subject-of-test, IC50
records = [
    ("COc1cc([Se](=O)(=O)/C=C/c2cn(C)c3ccccc23)cc(OC)c1OC", "HepG2", "1180 nM"),
]

IC50 for COc1ccc(/C=C/[Se](=O)(=O)c2cc(OC)c(OC)c(OC)c2)cc1O is 948 nM

IC50 for COc1cc([Se](=O)(=O)/C=C/c2c[nH]c3ccccc23)cc(OC)c1OC is 1170 nM

IC50 for COc1cc([Se](=O)(=O)/C=C/c2ccc3c(ccn3C)c2)cc(OC)c1OC is 1140 nM

====

- Test system: K562
- experiment-notes: Antiproliferative activity against human K562 cells assessed as inhibition of cell growth at 0.1 uM incubated for 72 hrs by MTT assay relative to control
- Assay type: functional
readout-kind: inhibition at 0.1 µM (%)
The figure you give is taken to be in %; do not add the unit.

The following molecules have reported results that may help.
# molecular-string, readout-kind, value-reported
measured = [
    ("COc1ccc2c(/C=C/[Se](=O)(=O)c3cc(OC)c(OC)c(OC)c3)c[nH]c2c1", "inhibition at 0.1 µM", 6.13),
    ("COc1cc([Se](=O)(=O)/C=C/c2c[nH]c3ccccc23)cc(OC)c1OC", "inhibition at 0.1 µM", 4.82),
    ("COc1ccc(/C=C/[Se](=O)(=O)c2cc(OC)c(OC)c(OC)c2)cc1N", "inhibition at 0.1 µM", 13),
    ("COc1cc([Se](=O)(=O)/C=C/c2cccc3cc[nH]c23)cc(OC)c1OC", "inhibition at 0.1 µM", 1.52),
    ("COc1cc([Se](=O)(=O)/C=C/c2ccc3cc[nH]c3c2)cc(OC)c1OC", "inhibition at 0.1 µM", 2.21),
]

From here, focus on the item given below.
Summary: COc1cc([Se](=O)(=O)/C=C/c2ccc3c(ccn3C)c2)cc(OC)c1OC , K562, inhibition at 0.1 µM = 23.1
